Hello, the source for this data is patent US11332459B2, in case you need it.

# pIC50 listing for each entry below
- Tested on: UniProt Q9Y210
- Sequence (Q9Y210 1-931): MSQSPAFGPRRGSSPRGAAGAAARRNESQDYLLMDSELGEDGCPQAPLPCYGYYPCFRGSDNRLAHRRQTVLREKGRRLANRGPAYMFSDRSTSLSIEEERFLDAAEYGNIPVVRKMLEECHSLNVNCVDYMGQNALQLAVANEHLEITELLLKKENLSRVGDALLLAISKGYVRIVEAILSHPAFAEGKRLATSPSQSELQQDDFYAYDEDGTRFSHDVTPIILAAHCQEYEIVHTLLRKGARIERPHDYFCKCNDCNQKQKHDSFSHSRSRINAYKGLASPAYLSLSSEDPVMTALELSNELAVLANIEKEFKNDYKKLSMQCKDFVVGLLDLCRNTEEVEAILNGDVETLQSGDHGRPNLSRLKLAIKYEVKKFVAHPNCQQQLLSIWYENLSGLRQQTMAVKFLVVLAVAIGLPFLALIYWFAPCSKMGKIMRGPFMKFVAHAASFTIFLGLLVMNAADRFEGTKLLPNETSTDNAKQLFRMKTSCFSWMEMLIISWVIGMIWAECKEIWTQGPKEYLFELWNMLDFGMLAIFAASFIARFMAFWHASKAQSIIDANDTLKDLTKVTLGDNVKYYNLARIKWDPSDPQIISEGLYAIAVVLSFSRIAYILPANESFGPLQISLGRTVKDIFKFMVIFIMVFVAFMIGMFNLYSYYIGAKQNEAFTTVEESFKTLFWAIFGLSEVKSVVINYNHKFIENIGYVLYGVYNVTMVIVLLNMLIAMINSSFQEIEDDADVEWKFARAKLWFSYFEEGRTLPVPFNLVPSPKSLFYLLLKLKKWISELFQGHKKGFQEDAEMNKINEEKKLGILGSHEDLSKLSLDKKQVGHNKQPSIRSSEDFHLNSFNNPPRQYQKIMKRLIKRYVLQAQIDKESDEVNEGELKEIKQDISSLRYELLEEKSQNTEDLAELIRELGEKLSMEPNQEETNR
- Assay details: TRPC6 calcium flux assay (FLIPR, OAG-stimulated calcium influx)
- Experimental context: HEK293 cells stably transfected with human TRPC6, read-out: hTRPC6 Potency
Where a name gives a salt, the structure may show the parent alone.
FYI, pIC50 means -log10 of a concentration in mol per litre.

The examples below pair each entry with its known result.
# Compound, Tested on, pIC50
rows = [
    ("CN[C@@H]1CN(c2nc3cc(F)cc(F)c3n2[C@H](C)c2ccc(C#N)cn2)CC[C@H]1F (single isomer, unassigned) [Example 440]", "UniProt Q9Y210", 5.87),
    ("CCCN(C)C(=O)Cn1c(N2CC[C@@H](F)[C@H](N)C2)nc2cc(F)c(F)cc21 [Example 616]", "UniProt Q9Y210", 7.49),
    ("COc1ccc(Cn2c(N3CCC[C@@H](N)C3)nc3ccccc32)cc1Cl [Example 393]", "UniProt Q9Y210", 5.30),
    ("CCOc1ccc2nc(N3CC[C@@H](F)C(N)C3)n(Cc3ccc(C#N)cc3)c2c1 (stereo in doubt) [Example 414]", "UniProt Q9Y210", 8.82),
    ("N#Cc1ccc(Cn2c(N3CC[C@@H](F)[C@H](N)C3)nc3cc(C#N)ccc32)cc1 [Example 159]", "UniProt Q9Y210", 7.79),
]

Turning now to a further compound:
Q: Consider the compound N#Cc1ccc2nc(N3CC[C@@H](F)[C@H](N)C3)n(Cc3ccc(C(F)(F)F)nc3)c2c1 [Example 243, hydrochloride] and give its recorded pIC50.
A: 5.71
